Data origin, for the record: patent US20210107971A1

study-target: recombinant full-length human alpha synuclein monomer (human, UniProt P37840 1-140)
assay-notes: SPR, Biacore T200, as in Example 3; full-length IgG4P injected
pKd: −log10 of the molar value.
reported-metric: pKd

{"binder": "VR6470 gL3-N33R; gH36-S56N-N102H (antibody, human IgG4 S228P, kappa, V domains shown, Full-length humanized human IgG4P) VH: EVQLLESGGGLVQPGGSLRLSCAVSGIDLSSHDMYWVRQAPGKGLEYIGAIYASGNTYYASWAKGRFTISRDSSKNTLYLQMNSLRAEDTAVYYCARIHYGHSGGLWGQGTLVTVSS VL: DIQMTQSPSSLSASVGDRVTITCQASQSVYKNRYLAWFQQKPGKAPKQLIYGASTLASGVPSRFSGSGSGTQFTLTISSLQPEDFATYYCAGYKGGRNDGFAFGGGTKVEIKR", "reported-metric": "pKd", "result": 8.88}
{"binder": "VR6470 gL3; gH36-S56N-N102H (antibody, human IgG4 S228P, kappa, V domains shown, Full-length humanized human IgG4P) VH: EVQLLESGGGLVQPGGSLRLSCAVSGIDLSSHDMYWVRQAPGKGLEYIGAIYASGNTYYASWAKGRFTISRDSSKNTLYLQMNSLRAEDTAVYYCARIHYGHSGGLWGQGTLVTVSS VL: DIQMTQSPSSLSASVGDRVTITCQASQSVYKNNYLAWFQQKPGKAPKQLIYGASTLASGVPSRFSGSGSGTQFTLTISSLQPEDFATYYCAGYKGGRNDGFAFGGGTKVEIKR", "reported-metric": "pKd", "result": 8.39}
{"binder": "6470gL3gH36 IgG4P (antibody, V domains shown, Full-length humanized human IgG4P; also called VR6470 gL3; VR6470) VH: EVQLLESGGGLVQPGGSLRLSCAVSGIDLSSHDMYWVRQAPGKGLEYIGAIYASGSTYYASWAKGRFTISRDSSKNTLYLQMNSLRAEDTAVYYCARIHYGNSGGLWGQGTLVTVSS VL: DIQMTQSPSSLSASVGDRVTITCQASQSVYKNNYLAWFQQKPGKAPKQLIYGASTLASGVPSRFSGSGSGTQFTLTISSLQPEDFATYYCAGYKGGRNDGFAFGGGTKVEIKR", "reported-metric": "pKd", "result": 7.82}
{"binder": "VR6470 gL3; gH23-S56N-N102H (antibody, human IgG4 S228P, kappa, V domains shown, Full-length humanized human IgG4P) VH: EVQLLESGGGLVQPGGSLRLSCAVSGIDLSSHDMYWVRQAPGKGLEYIGAIYASGNTYYASWAKGRFTISRDNSKNTVYLQMNSLRAEDTAVYYCARIHYGHSGGLWGQGTLVTVSS VL: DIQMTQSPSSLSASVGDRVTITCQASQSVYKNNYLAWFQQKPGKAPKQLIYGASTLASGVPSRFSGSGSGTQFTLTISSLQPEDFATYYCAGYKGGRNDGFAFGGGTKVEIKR", "reported-metric": "pKd", "result": 8.34}
{"binder": "VR6470 gL3-N33R; gH23-S56N-N102H (antibody, human IgG4 S228P, kappa, V domains shown, Full-length humanized human IgG4P) VH: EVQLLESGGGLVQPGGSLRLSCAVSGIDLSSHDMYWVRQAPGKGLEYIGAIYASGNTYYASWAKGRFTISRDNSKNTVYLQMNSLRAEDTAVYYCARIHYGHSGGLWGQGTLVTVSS VL: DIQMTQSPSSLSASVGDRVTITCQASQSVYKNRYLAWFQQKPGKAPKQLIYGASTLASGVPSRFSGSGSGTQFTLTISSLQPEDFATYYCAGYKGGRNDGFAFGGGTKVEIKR", "reported-metric": "pKd", "result": 8.77}
